Target: FLAG-tagged Vanin-1 (AA 22-493, T26I) (Homo sapiens, UniProt O95497, T26I)
Construct: FLAG-tagged Vanin-1 (AA 22-493, T26I, produced internally); FLAG
Experiment: Vanin-1 enzymatic assay
Conditions: 0.1 nM Vanin-1, 3 μM D-pantethine, pantothenic acid formation by RapidFire MS; geometric mean if multiple measurements; read-out: VNN-1 IC50
Recorded pIC50 values for a group of compounds are listed next.
pIC50 is defined as minus the log10 of a concentration measured in mol/L.

Sample answers from the record:
CC(=O)N(C)[C@H]1CCN(C(=O)c2ccc(NC(C)c3cccc(C(N)=O)c3)nc2)C1 (stereo partly shown) :: 9.46
CC(=O)N(C)[C@H]1CCN(C(=O)c2ccc(NCc3ccccn3)nc2)C1 :: 8.78

Here is the next item to consider.
# input Entry CN(C(=O)C1CC(F)(F)C1)[C@H]1CCN(C(=O)c2ccc(NCc3cccnc3)nc2)C1 has what pIC50?
# output 9.89

---

Recorded IC50 values for a group of compounds are listed next.
Target: FLAG-tagged Vanin-1 (AA 22-493, T26I) (Homo sapiens, UniProt O95497, T26I)
Construct: FLAG-tagged Vanin-1 (AA 22-493, T26I, produced internally); FLAG
Assay: Vanin-1 enzymatic assay
Details: 0.1 nM Vanin-1, 3 μM D-pantethine, pantothenic acid formation by RapidFire MS; geometric mean if multiple measurements; read-out: VNN-1 IC50
# unit: pM | format: bare number

CC(=O)N(C)[C@H]1CCN(C(=O)c2ccc(NCc3cccnn3)nc2)C1 :: 1040

# input Entry CC(=O)N(C)[C@H]1CCN(C(=O)c2ccc(NCc3cccs3)nc2)C1 has what IC50?
# output 850

# input Entry COc1ccc(CNc2ccc(C(=O)N3CC[C@H](N(C)C(=O)C4CC4)C3)cn2)cn1 please
# output 970

# input Entry CC(=O)N(C)[C@H]1CCN(C(=O)c2ccc(NCc3ccccc3)nc2)C1 please
# output 810

---

Molecular target: FLAG-tagged Vanin-1 (AA 22-493, T26I) (Homo sapiens, UniProt O95497, T26I)
Construct: FLAG-tagged Vanin-1 (AA 22-493, T26I, produced internally); FLAG
Sequence (O95497 22-493 T26I): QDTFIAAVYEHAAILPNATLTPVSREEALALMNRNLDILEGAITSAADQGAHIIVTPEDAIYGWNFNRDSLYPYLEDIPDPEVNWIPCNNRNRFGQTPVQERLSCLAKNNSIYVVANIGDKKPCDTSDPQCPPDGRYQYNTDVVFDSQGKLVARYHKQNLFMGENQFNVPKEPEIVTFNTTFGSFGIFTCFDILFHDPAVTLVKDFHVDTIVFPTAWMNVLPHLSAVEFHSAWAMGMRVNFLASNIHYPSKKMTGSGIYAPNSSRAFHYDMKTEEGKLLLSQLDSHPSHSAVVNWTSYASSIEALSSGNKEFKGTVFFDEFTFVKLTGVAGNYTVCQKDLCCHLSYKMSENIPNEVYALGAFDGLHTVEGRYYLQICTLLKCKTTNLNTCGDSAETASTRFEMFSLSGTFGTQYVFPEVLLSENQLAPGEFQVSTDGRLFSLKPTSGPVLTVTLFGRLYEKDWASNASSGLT
Experiment: Vanin-1 enzymatic assay
Conditions: 0.1 nM Vanin-1, 3 μM D-pantethine, pantothenic acid formation by RapidFire MS; geometric mean if multiple measurements; read-out: VNN-1 IC50
Recorded pIC50 values for a group of compounds are listed next.
pIC50 is defined as minus the log10 of a concentration measured in mol/L.

Sample answers from the record:
CN(C(=O)C1CCC1)[C@H]1CCN(C(=O)c2ccc(NC(C)(C)c3ccccc3)nc2)C1 [Example 2.2] :: 10.15
CC(=O)N(C)[C@H]1CCN(C(=O)c2ccc(NC3CCc4ncccc43)nc2)C1 (single isomer, unassigned) [Example 8.14] :: 8.07
CN(C(=O)C1(C)CCC1)[C@H]1CCN(C(=O)c2ccc(NCc3cccnc3)nc2)C1 [Example 1.14] :: 9.74

Here is the next item to consider.
# input Entry CN(C(=O)C1CC1)[C@H]1CCN(C(=O)c2ccc(NCc3cccnc3)nc2)C1 [Example 1.8] has what pIC50?
# output 9.92
